// reported IC50 per item
- Target Of Assay: human cathepsin L (Homo sapiens)
- Sequence (P07711 114-333): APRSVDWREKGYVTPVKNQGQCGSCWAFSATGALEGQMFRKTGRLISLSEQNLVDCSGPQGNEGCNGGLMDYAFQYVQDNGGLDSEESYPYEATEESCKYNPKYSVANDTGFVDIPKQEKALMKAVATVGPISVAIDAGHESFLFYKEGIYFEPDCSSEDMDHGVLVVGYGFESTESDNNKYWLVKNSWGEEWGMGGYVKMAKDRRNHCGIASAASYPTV

Illustrative cases are given below, each with its answer.
IN: Find the recorded IC50 belonging to N#CC1(NC(=O)C2(NC(=O)c3cc4ccc(-c5ccc(C6(O)CCS(=O)(=O)CC6)cc5)cc4o3)CCC(F)(F)CC2)CC1 and report it.
OUT: > 10 µM

IN: And COC1(c2ccc(-c3ccc4cc(C(=O)NC5(C(=O)NC6(C#N)CC6)CCCCC5)oc4c3)cc2)COC1 ?
OUT: > 10 µM

Others:
IN: Find the recorded IC50 belonging to N#CC1(NC(=O)C2(NC(=O)c3cc4ccc(-c5ccc(C6(N)COC6)cc5)cc4o3)CCC(F)(F)CC2)CC1 and report it.
OUT: 3.1 µM

IN: And N#CC1(NC(=O)C2(NC(=O)c3cc4ccc(-c5ccc(C6(N)COC6)cc5)cc4o3)CCCCC2)CC1 ?
OUT: 1.5 µM

IN: And N#CC1(NC(=O)C2(NC(=O)c3cc4ccc(-c5ccc6c(c5)OCO6)cc4o3)CCC(F)(F)CC2)CC1 ?
OUT: > 10 µM

Sourced from patent US10494364B2
